Assay: binders of probe aFGF2 on microarray, primary screen, stem cell growth factor project, biochemical, small-molecule microarray, fluorescence 635/667 (AID 1067);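 further: measures binding of biotinylated aFGF2 protein to printed compounds on slides; z-score merges feature fluorescence and signal-to-noise across triplicate slides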
Settings: higher = more signal
Experimental Endpoint: composite z-score

Reported composite z-score for O=C(NO)[C@]1(Cc2ccccc2)N=C(c2ccc(OCCCO)cc2)O[C@@H]1c1ccccc1 was -0.246

Reported composite z-score for C=CCNC(=O)[C@H]1[C@@H]2C(=O)O[C@@H](c3ccccc3)[C@@H](c3ccccc3)N2[C@@H](c2ccccc2OCCO)[C@]12C(=O)N(C(=O)OCCOC)c1ccc(C#CCCO)cc12 was 0.0603

Reported composite z-score for C=CCC1(CC=C)C[C@H]2CO[C@H](c3ccc(OC)cc3)N2C1=O was -0.107

Reported composite z-score for CC(C)C[C@@H]1NC(=O)[C@@]23C(=O)N[C@@H](Cc4ccccc4)C2[C@H](C)[C@@]2(C)O[C@H]2C3/C=C/C/C=C\CNC(=O)[C@H](Cc2ccccc2)NC1=O (stereo partly specified) was -0.101

Reported composite z-score for COc1ccc([Si](C)(C)[C@@H]2[C@@H](CCn3cc([C@H](O)c4ccccc4)nn3)O[C@]3(C(=O)N(C)c4c(Br)cc(C)cc43)[C@H]2C)cc1 was -0.116

Reported composite z-score for O=C(O)[C@H]1C[C@H]2C(=O)NCC(=O)N2[C@H]1c1cccc(OCCO)c1 was 0.0568

Reported composite z-score for O=C(NCc1ccccc1)[C@@H]1c2ccccc2C(=O)N(Cc2ccccc2Cl)[C@H]1c1ccc(CO)cc1 was 0.0139

Reported composite z-score for C=C(/C(=C/C[C@H](OC(=O)c1ccncc1)c1cccc(OCCO)c1)c1cc(C(=O)OC)ccc1OC)C(C)C was -0.113

Reported composite z-score for CCN(CC)c1ccc(N2CC=CC34O[C@@H]5C=CCOC(=O)[C@@H]5[C@H]3C(=O)N(C(C)CO)[C@@H]4C2=O)cc1 (stereo partly specified) was -0.171

Reported composite z-score for C#CCN1C(C(=O)OCC)OC[C@H]1c1ccccc1 (stereo partly specified) was -0.128

Reported composite z-score for CO[C@H]1O[C@H](CO)[C@@H](OC(=O)CCc2ccccc2)[C@@H]2OC(=O)[C@H](Cc3ccccc3)C/C=C/C[C@@H](Cc3ccccc3)C(=O)O[C@@H]12 was -0.134

Reported composite z-score for O=C(N1CCCCC1)[C@@]1(Cc2ccccc2)N=C(c2ccc(OCCCO)cc2)O[C@H]1c1ccccc1 was 0.103

Reported composite z-score for C=CCOC(=O)[C@H]1[C@@H]2C(=O)O[C@@H](c3ccccc3)[C@@H](c3ccccc3)N2[C@@H](c2ccc(OCCOC(=O)[C@H]3C[C@H]4C(=O)N5CCC[C@H]5C(=O)N4[C@H]3c3cccc(OCCO)c3)cc2)[C@]12C(=O)Nc1ccccc12 was -0.147

Reported composite z-score for COCCCNC(=O)[C@@]1(CCS(=O)(=O)c2ccccc2)N=C(c2ccc(OCCCO)cc2)O[C@H]1c1ccccc1CN=[N+]=[N-] was 0.331

Reported composite z-score for NC(=O)NCC#Cc1ccc2c(c1)[C@]1(C(=O)N2)[C@H](c2ccc(OCCO)cc2)N2[C@H](c3ccccc3)[C@H](c3ccccc3)OC(=O)[C@H]2[C@@H]1C(=O)Nc1nc2ccccc2s1 was -0.0953

Reported composite z-score for CC(C)C(CO)N1C(=O)[C@@H]2C3C(=O)OCCC/C=C\[C@H]3OC23C=CCN(C(C)C)C(=O)[C@@H]13 (stereo partly specified) was -0.116

Reported composite z-score for CN1C=C(C(=O)OCCS(C)(=O)=O)C(C(=O)OCCS(C)(=O)=O)=CC(CCCO)=CC1c1cccs1 (stereo unspecified) was -0.197

Reported composite z-score for C=C(C(=O)CC[C@@H](OC(C)=O)c1ccccc1OCCO)C(C)C was -0.133

Reported composite z-score for COc1ccc([Si](C)(C)[C@@H]2[C@@H](CC(=O)N3CCC[C@H]3CO)O[C@]3(C(=O)N(Cc4ccc(N5CCC5=O)cc4)c4ccccc43)[C@H]2C)cc1 was -0.071

Reported composite z-score for O=C(NC1CC1)[C@@H]1c2ccccc2C(=O)N(Cc2ccccc2C(F)(F)F)[C@H]1c1ccc(CO)cc1 was -0.116

Reported composite z-score for C=CC[C@]1(C(=O)N(C)C)N=C(c2ccc(OCCCO)cc2)O[C@H]1c1ccccc1CN=[N+]=[N-] was 0.0188
